Molecular target: Fuc(a1-3)[GalNAc(b1-4)]GlcNAc6S
Assay: glycan array binding signal (z-score within array); higher = stronger binding
Details: glycan notation: IUPAC condensed, linker removed
About 410 targets per protein were measured; listed, in parts, are those with the strongest signals and a random draw of the rest.
Measurement name: glycan array binding signal (z-score)
Give bare numbers.

Would you mind telling me what glycan array binding signal (z-score) value was observed for Actd5 (Actinidia), P84527 (protein) ISSCNGPCRDLNDCDGQLICIKGKCNDDPQVGTHICRGTTHSHQPGGCKPSGTLTCRGKSYPTYDCSPPVTSSTPAKLTNNDFSEGGDDGGPSECDESYHNNNERIVALSTGWYNGGSRCGKMIRITASNGKSVSAKVVDECDSRHGCDKEHAGQPPCRNNIVDGSNAVWSALGLDKNVGVVDITWSMA ?
-1.21

Origin of values: the supplement of paper PMC8728848
